Reference source for all entries: patent US20250129103A1

tested.system: KRAS G12C (GMPPNP-loaded) and cRAF (Ras-binding domain) interaction (Homo sapiens (Human), UniProt P01116, C118S/C51S/C80L/G12C)
Sequence (P01116 other isoform, or with tags, fused parts or gaps G12C/C51S/C80L/C118S): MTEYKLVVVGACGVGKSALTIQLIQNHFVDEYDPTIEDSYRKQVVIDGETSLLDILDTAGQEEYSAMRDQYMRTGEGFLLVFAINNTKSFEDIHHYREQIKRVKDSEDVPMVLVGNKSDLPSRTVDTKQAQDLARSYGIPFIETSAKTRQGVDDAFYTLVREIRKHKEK
experiment.notes: Inhibition of KRAS G12C and cRAF binding (AlphaScreen)
measurement.setup: KRAS G12C loaded with GMPPNP, cRaf RBD, 2 hours preincubation; read-out: Raf-1 RBD K-Ras IC50
property.measured: IC50

Study these solved cases before continuing.
[[record]]
test_smiles = "Cc1noc(/C=C/C(=O)N2CCN(c3nc(OCC45CCCN4CCC5)nc4c(F)c(-c5cccc6cccc(Cl)c56)ncc34)C[C@@H]2CC#N)n1"
result = "10 to 100 nM"

[[record]]
test_smiles = "N#CC[C@H]1CN(c2nc(OCC34CCCN3CCC4)nc3c2CCN(c2cccc4cccc(Cl)c24)C3)CCN1C(=O)/C=C/CN1CCSCC1"
result = "< 10 nM"

[[record]]
test_smiles = "Cc1nccc(/C=C/C(=O)N2CCN(c3nc(OCC45CCCN4CCC5)nc4c3CCN(c3cccc5cccc(Cl)c35)C4)C[C@@H]2CC#N)n1"
result = "< 10 nM"


Query string: Note IC50 for the molecule shown: "N#CC[C@H]1CN(c2nc(OCC34CCCN3CCC4)nc3c(F)c(-c4cccc5cccc(Cl)c45)ncc23)CCN1C(=O)/C=C/c1nc([C@H]2C[C@@H]2F)no1"
Result string: 100 to 500 nM

Query string: Note IC50 for the molecule shown: "N#CC[C@H]1CN(c2nc(OCC34CCCN3CCC4)nc3c2CCN(c2cccc4cccc(Cl)c24)C3)CCN1C(=O)/C=C/CN1CCCS1(=O)=O"
Result string: 100 to 500 nM

Query string: Note IC50 for the molecule shown: "N#CC[C@H]1CN(c2nc(OC[C@@]34CCCN3C[C@H](F)C4)nc3c(F)c(-c4cccc5cccc(Cl)c45)ncc23)CCN1C(=O)/C=C/CN1CCS(=O)(=O)CC1"
Result string: 100 to 500 nM

Query string: Note IC50 for the molecule shown: "N#CC[C@H]1CN(c2nc(OC[C@@]34CCCN3C[C@H](F)C4)nc3c(F)c(-c4cccc5cccc(Cl)c45)ncc23)CCN1C(=O)/C=C/CN1CC[C@H](F)C1"
Result string: < 10 nM
